Values compiled from ChEMBL document CHEMBL1139246.

Method Notes: Dissociation constant, pKa of the compound
Format: physicochemical
Readout Name: pKa

Query: What measured pKa goes with CC(C)c1cc(Nc2cccc(Cl)c2)ncc1C(=O)NCC1CCOCC1 ?
Response: 6.02

Query: Which value of pKa has been reported for CC(C)c1cc(Nc2cccc(C(F)(F)F)c2F)ncc1C(=O)NCC1CCOCC1 in the records?
Response: 6.02

---
Query: Look up pKa for this compound: CC(C)c1cc(Nc2cccc(Cl)c2)ncc1C(=O)NCC1CCCC1
Response: 6.02

Query: Would you mind telling me what pKa value was observed for CC(C)c1cc(Nc2ccc(C#N)c(Cl)c2)ncc1C(=O)NCC1CCOCC1 ?
Response: 6.02

Query: # lookup: pKa of CCC(CC)CNC(=O)c1cnc(Nc2cccc(Cl)c2)cc1C(C)C
Response: 6.02

Query: # input compound: CC(C)c1cc(Nc2cccc(Br)c2)ncc1C(=O)NCC1CCOCC1 ; wanted: its pKa
Response: 6.02

Query: Requested field: pKa. Item: O=C(NCc1ccc(F)cc1)c1cnc(Nc2cccc(Br)c2)cc1C(F)(F)F
Response: 2.63

Query: Any idea what pKa was measured for O=C(NCC1CCOCC1)c1cnc(Nc2cccc(Cl)c2)cc1C(F)(F)F ?
Response: 2.63

Query: Return reported pKa; argument: COc1ccc(Cl)cc1Nc1cc(C(F)(F)F)c(C(=O)NCC2CCOCC2)cn1
Response: 2.63

---

Below, each entry is listed with its recorded pKa.
Method Notes: Dissociation constant, pKa of the compound
Format: physicochemical
# respond with the number and nothing more

Query: pKa; subject: O=C(NCC1CCCCC1)c1cnc(Nc2cccc(Cl)c2)cc1C(F)(F)F
Response: 2.63

Query: Consider the compound Cc1cccc(Nc2cc(C(C)C)c(C(=O)NCC3CCOCC3)cn2)c1 and give its measured pKa.
Response: 6.02

Query: Could you tell me which pKa is on file for COc1ccc(Cl)cc1Nc1cc(C(F)(F)F)c(C(=O)NCC2CCC2)cn1 ?
Response: 2.63

Query: Reported pKa for O=C(NCC1CCOCC1)c1cnc(Nc2cccc(F)c2)cc1C(F)(F)F : what is it?
Response: 2.63

Now examine the next entry.
Query: Consider the compound shown here: O=C(NCC1CCOCC1)c1cnc(Nc2ccc(Cl)cc2Cl)cc1C(F)(F)F What is its recorded pKa?
Response: 2.63

---

Method Notes: Oral bioavailability in rat at 3 mg/kg
Format: ADME, organism-based
Assay Conditions: in vivo
Readout Name: bioavailability (%)
Write the answer as a number in %, unit excluded.

Query: # bioavailability lookup, item O=C(NCC1CCOCC1)c1cnc(Nc2ccc(Cl)cc2Cl)cc1C1CC1
Response: 39

---

Method Notes: Half life in rat at 1 mg/kg, iv
Type: ADME, organism-based
Parameters: dose 1 mg/kg, route intravenous
Assay Conditions: in vivo
Readout Name: half-life
State the value, then name its unit.

Query: I'd like to know its half-life. The compound in question is O=C(NCC1CCOCC1)c1cnc(Nc2ccc(Cl)cc2Cl)cc1C1CC1
Response: 186 min

---

System: Rattus norvegicus
Method Notes: Dose normalized AUC (0 to t) in rat at 30 mg/kg, po after 6 hrs
Type: ADME, organism-based
Design: time < 6 hr, dose 30 mg/kg, route oral
Assay Conditions: in vivo
Readout Name: AUC (kg·min/L)
Give just the numeric value; kg·min/L need not be written.

Query: // returns reported AUC for input CC(C)(C)c1cc(Nc2ccc(Cl)cc2Cl)ncc1C(=O)NCC1CCOCC1
Response: 16

Query: Fill blank: measured AUC of the compound O=C(NCC1CCOCC1)c1cnc(Nc2cccc(OC(F)(F)F)c2)cc1C1CC1 is ____.
Response: 3

Query: Reported AUC for O=C(NCC1CCOCC1)c1cnc(Nc2cccc(Br)c2)cc1C1CC1 : what is it?
Response: 5

Proceed to the following item.
Query: Please give the measured AUC for this compound: O=C(NCC1CCOCC1)c1cnc(Nc2ccc(Cl)cc2Cl)cc1C1CC1
Response: 15

---

Method Notes: Volume of distribution in rat at 1 mg/kg, iv
Format: ADME, organism-based
Set-up: dose 1 mg/kg, route intravenous
Assay Conditions: in vivo
Readout Name: Vd (L/kg)
Your answer is read as L/kg, so omit the unit and give the number.

Query: Look up Vd for this compound: O=C(NCC1CCOCC1)c1cnc(Nc2ccc(Cl)cc2Cl)cc1C1CC1
Response: 2.4

---

Method Notes: Dissociation constant, pKa of the compound
Format: physicochemical
The following compounds are shown together with reported pKa values.
Give the figure only, with no unit attached.

Query: What value of pKa has been recorded for this entry: NC(=O)c1ccc(CNC(=O)c2cnc(Nc3cccc(Cl)c3)cc2C(F)(F)F)cc1
Response: 2.63

Query: // returns reported pKa for input CC(C)CNC(=O)c1cnc(Nc2cccc(Cl)c2)cc1C(C)C
Response: 6.02

Query: Given Cc1cccc(Nc2cc(C(C)C)c(C(=O)NCC3CCC3)cn2)c1 , state its recorded pKa.
Response: 6.02

---

Method Notes: Dissociation constant, pKa of the compound
Type: physicochemical
Readout Name: pKa
Note: the reply should be a number with no unit written.

Query: # input molecule: CC(C)c1cc(Nc2ccc(Cl)cc2Cl)ncc1C(=O)NCC1CCOCC1 ; wanted: its pKa
Response: 6.02

***
Query: What value of pKa has been recorded for this entry: CC(C)c1cc(Nc2cccc(Cl)c2)ncc1C(=O)NCc1ccc(F)cc1
Response: 6.02

Query: Name the recorded pKa for COc1cccc(Nc2cc(C(C)C)c(C(=O)NCC3CCOCC3)cn2)c1 .
Response: 6.02

Query: Need pKa of CC(C)c1cc(Nc2cccc(Cl)c2)ncc1C(=O)NC1CCOCC1 , thanks.
Response: 6.02

Query: Consider the molecule shown here: Cc1cc(Cl)ccc1Nc1cc(C(F)(F)F)c(C(=O)NCC2CCOCC2)cn1 What is its recorded pKa?
Response: 2.63

Query: What does the record list as pKa for CC(C)c1cc(Nc2cccc(Cl)c2)ncc1C(=O)NCC(C)(C)C ?
Response: 6.02

Query: State the recorded pKa for this entry: CC(C)c1cc(Nc2cccc(C#N)c2)ncc1C(=O)NCC1CCOCC1
Response: 6.02

Query: Which pKa is reported for this molecule? O=C(NCC1CCCC1)c1cnc(Nc2ccc(Cl)cc2Cl)cc1C(F)(F)F
Response: 2.63
